Each recorded value in this set is attributed to patent US20250059162A1.

System: HL60 cells
assay-procedure: Anti-proliferation on HL60 cells (CellTiter-Glo, 3 days)
Assay type: cell-based
condition: Homo sapiens, HL-60, 72 h, 3 days incubation, CTG luminescence, IC50 by XLfit, read-out: HL60 cells Proliferation inhibitory activity
Please go through the items and note down their IC50.
Numbers only, in µM.

Completed entries (count: 2):
{"molecule": "O=C1CCC(N2Cc3cc(NC(=O)CC4CCN(c5nccc(-c6cccc7ccccc67)n5)CC4)ccc3C2=O)C(=O)N1 (stereo not shown) [Compound A13]", "IC50, µM": 0.0064}
{"molecule": "Cn1nc(N2CCC(=O)NC2=O)c2ccc(CNCC3CCN(c4ncc(-c5cccc(Cl)c5)cc4C(F)(F)F)CC3)cc21 [Compound A177]", "IC50, µM": 4.35}

For the molecule shown here, O=C1CCC(NC(=O)Cc2ccc(CNCC3CCN(c4ncc(-c5cccc(Cl)c5)cc4C(F)(F)F)CC3)cc2)C(=O)N1 (stereo not shown) [Compound A167] , give the reported IC50. 9.58
